MEASUREMENT TARGET: Mcl-1 (Homo sapiens (Human), UniProt Q07820)
Sequence (Q07820 172-327): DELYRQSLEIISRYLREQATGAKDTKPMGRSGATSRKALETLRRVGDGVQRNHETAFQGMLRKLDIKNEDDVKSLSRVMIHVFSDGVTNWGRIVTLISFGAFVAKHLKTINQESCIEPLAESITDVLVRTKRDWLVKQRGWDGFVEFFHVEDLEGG
PROTOCOL: TR-FRET binding assay, FITC-Bak peptide and MBP-tagged Mcl-1
EXPERIMENTAL CONDITIONS: read-out: Ki for Inhibition of Mcl-1 by TR-FRET assay
Protocol: Compounds are diluted in DMSO in a 16-point, semilog serial dilution scheme. […] The plate was mixed and incubated for 3 hours at room temperature. […] TR-FRET signal is plotted and IC50 and Ki values are calculated in the same manner as the fluorescence polarization anisotropy based competition assays.
ENDPOINT: pKi
pKi is a log-scale quantity: -log10 of the concentration expressed in molar.

Lab note: measured pKi of Cc1cc(OCCCc2c3n(c4c(-c5c(C)nn(C)c5C)c(Cl)ccc24)[C@H](C)CN(c2cn(Cc4cscn4)c4ccc(C(=O)O)cc24)C3=O)cc(C)c1Cl was 9.70

Lab note: measured pKi of Cc1cc(N2C[C@@H](C)n3c(c(CCCOc4cc(C)c(Cl)c(C)c4)c4ccc(Cl)c(-c5c(C)nn(C)c5C)c43)C2=O)c2c(c1)cc(C(=O)O)n2Cc1cc(N2CCCCC2)ccn1 was 9.64

Lab note: measured pKi of Cc1ccc(Cn2cc(C(=O)O)c3cccc(N4C[C@@H](C)n5c(c(CCCOc6cc(C)c(Cl)c(C)c6)c6ccc(Cl)c(-c7c(C)nn(C)c7C)c65)C4=O)c32)nc1 (single isomer, unassigned) [Example 507] was 9.14

Lab note: measured pKi of Cc1cc(OCCCc2c3n(c4c(-c5c(C)nn(C)c5C)c(Cl)ccc24)[C@H](C)CN(c2cc(N(C)Cc4ccccn4)cc4c(C(=O)O)cn(C)c24)C3=O)cc(C)c1Cl was 9.34

Lab note: measured pKi of Cc1cc(OCCCc2c3n(c4c(-c5c(C)nn(C)c5C)c(Cl)ccc24)[C@H](C)CN(c2cn(CC(=O)N4CCCC4)c4ccc(-c5ncn(C)n5)cc24)C3=O)cc(C)c1Cl was 9.44

* * *

Test system: H929 human cancer cell lines
PROTOCOL: Cellular viability / proliferation (Cell TiterGlo, 72 h)
Format: cell-based
EXPERIMENTAL CONDITIONS: Homo sapiens, NCI-H929, 72 h, read-out: GI50 on cellular proliferation of H929 human cancer cell lines, H929 cells, 72 h, Cell TiterGlo, 10% FBS
So basically: is GI50 under 3 µM? Then Met. Not under? Then Not met.

See these solved cases before continuing.
CC[C@@H]1Cn2c(c(CCCOc3cc(C)c(Cl)c(C)c3)c3ccc(Cl)c(-c4c(C)nn(C)c4C)c32)C(=O)N1c1ccc(C(=O)O)cc1 : Not met
Cc1cc(OCCCc2c3n(c4c(-c5c(C)ncnc5C)c(Cl)ccc24)CCCN(c2cn(C)c4cc(C(=O)O)ccc24)C3=O)cc(C)c1Cl : Met
Cc1cc(OCCCc2c3n(c4c(-c5c(C)nn(C)c5C)c(Cl)ccc24)[C@H](C)CN(c2cccc4cccc(C(=O)O)c24)C3=O)cc(C)c1Cl : Not met

Qu. Determine if Cc1cc(OCCCc2c3n(c4c(-c5c(C)nn(C)c5C)c(Cl)ccc24)[C@H](C)CN(c2cc(C(=O)N4CCOCC4)cc4cc(C(=O)O)n(C)c24)C3=O)cc(C)c1Cl shows GI50 strictly lower than 3 µM.
Ans. Met

Qu. Determine if Cc1cc(OCCCc2c3n(c4c(-c5c(C)nn(C)c5C)c(Cl)ccc24)[C@H](C)CN(c2cn(C)c4c(-c5nnn[nH]5)cccc24)C3=O)cc(C)c1Cl shows GI50 strictly lower than 3 µM.
Ans. Not met

Qu. Determine if Cc1cc(OCCCc2c3n(c4c(-c5c(C)nn(C)c5C)c(Cl)ccc24)[C@H](C)CN(c2cccc4cc(C(=O)O)n(Cc5ccncn5)c24)C3=O)cc(C)c1Cl shows GI50 strictly lower than 3 µM.
Ans. Met

Qu. Determine if Cc1cc(OCCCc2c3n(c4c(-c5c(C)nn(C)c5C)c(Cl)ccc24)[C@H](C)CN(c2cc(OC4CCN(C)CC4)cc4cc(C(=O)O)n(C)c24)C3=O)cc(C)c1Cl shows GI50 strictly lower than 3 µM.
Ans. Met

Qu. Determine if Cc1cc(OCCCc2c3n(c4c(-c5c(C)nn(C)c5C)c(Cl)ccc24)[C@H](C)CN(c2cn(C)c4ccc(-c5ncn(CC(C)C)n5)cc24)C3=O)cc(C)c1Cl shows GI50 strictly lower than 3 µM.
Ans. Met

* * *

Entries annotated with measured GI50
Tested on: H929 human cancer cell lines
PROTOCOL: Cellular viability / proliferation (Cell TiterGlo, 72 h)
Format: cell-based
EXPERIMENTAL CONDITIONS: Homo sapiens, NCI-H929, 72 h, read-out: GI50 on cellular proliferation of H929 human cancer cell lines, H929 cells, 72 h, Cell TiterGlo, 10% FBS
Form entry: value (µM) — number only.

The following compounds have reported results that may help.
Cc1cc(OCCCc2c3n(c4c(-c5c(C)nn(C)c5C)c(Cl)ccc24)CCCN(c2cc(C(=O)O)c4cn[nH]c4c2)C3=O)cc(C)c1Cl [Example 44] : 14
Cc1cc(OCCCc2c3n(c4c(-c5c(C)nn(C)c5C)c(Cl)ccc24)CCCN(c2cc(C(=O)O)c4c(Br)cn(C)c4c2)C3=O)cc(C)c1Cl [Example 2] : 8.3
Cc1cc(OCCCc2c3n(c4c(-c5c(C)nn(C)c5C)c(Cl)ccc24)[C@H](C)CN(c2cn(C)c4ccc(C(=O)N5CCCC5)cc24)C3=O)cc(C)c1Cl [Example 290] : 5.3

Now turn to the next compound.
Summary line: Cc1cc(OCCCc2c3n(c4c(-c5c(C)nn(C)c5C)c(Cl)ccc24)[C@H](C)CN(c2cn(C)c4ccc(-c5n[nH]c(=O)o5)cc24)C3=O)cc(C)c1Cl [Example 444] , H929 human cancer cell lines, reported GI50 = 0.22

* * *

MEASUREMENT TARGET: UniProt Q07820
PROTOCOL: TR-FRET binding assay, FITC-Bak peptide and MBP-tagged Mcl-1
EXPERIMENTAL CONDITIONS: read-out: Ki for Inhibition of Mcl-1 by TR-FRET assay
Entries annotated with measured Ki

The following compounds have reported results that may help.
Cc1cc(OCCCc2c3n(c4c(-c5c(C)nn(C)c5C)c(Cl)ccc24)[C@H](C)CN(c2cc(CN4CCCC4)cc4c(C(=O)O)cn(C)c24)C3=O)cc(C)c1Cl : 0.52 nM
COc1ccnc(Cn2c(C(=O)O)cc3c(OC)ccc(N4C[C@@H](C)n5c(c(CCCOc6cc(C)c(Cl)c(C)c6)c6ccc(Cl)c(-c7c(C)ncnc7C)c65)C4=O)c32)c1 : < 0.2 nM
Cc1cc(OCCCc2c3n(c4c(-c5c(C)cc(O)cc5C)c(Cl)ccc24)[C@H](C)CN(c2cn(C)c4ccc(C(=O)O)cc24)C3=O)cc(C)c1Cl : 0.64 nM
CC(=O)N1CCN(C(=O)c2cc(N3C[C@@H](C)n4c(c(CCCOc5cc(C)c(Cl)c(C)c5)c5ccc(Cl)c(-c6c(C)nn(C)c6C)c54)C3=O)c3c(c2)cc(C(=O)O)n3C)CC1 : < 0.2 nM

Now turn to the next compound.
Lab note: measured Ki of Cc1cc(OCCCc2c3n(c4c(-c5c(C)nn(C)c5C)c(Cl)ccc24)[C@H](C)CN(c2cn(CCN4CCN(C)C(=O)C4)c4ccc(-c5ncn(C)n5)cc24)C3=O)cc(C)c1Cl was 0.89 nM

* * *

MEASUREMENT TARGET: Mcl-1 (Homo sapiens (Human), UniProt Q07820)
PROTOCOL: TR-FRET binding assay, FITC-Bak peptide and MBP-tagged Mcl-1
EXPERIMENTAL CONDITIONS: read-out: Ki for Inhibition of Mcl-1 by TR-FRET assay
ENDPOINT: Ki (nM)
Form entry: value (nM) — number only.

Cc1cc(OCCCc2c3n(c4c(-c5c(C)nn(C)c5C)c(Cl)ccc24)[C@H](C)CN(c2cc(NC(=O)CCN4CCN(C)CC4)cc4c(C(=O)O)cn(C)c24)C3=O)cc(C)c1Cl : 0.3

Now turn to the next compound.
Lab note: measured Ki of COCCn1cc(N2C[C@@H](C)n3c(c(CCCOc4cc(C)c(Cl)c(C)c4)c4ccc(Cl)c(-c5c(C)nn(C)c5C)c43)C2=O)c2cc(-c3ncccn3)ccc21 was 0.94

* * *

Tested on: H929 human cancer cell lines
PROTOCOL: Cellular viability / proliferation (Cell TiterGlo, 72 h)
Format: cell-based
EXPERIMENTAL CONDITIONS: Homo sapiens, NCI-H929, 72 h, read-out: GI50 on cellular proliferation of H929 human cancer cell lines, H929 cells, 72 h, Cell TiterGlo, 10% FBS
Method: Cellular Viability of Human Tumor Cell Lines To evaluate compound effect on cellular proliferation, cells were plated at 1,000 cells/well in 96-well tissue culture plates in a total volume of 90 μL medium supplemented with 10% FBS (Sigma, Saint Louis, Mo.). […] Luminescence is measured on a BioTek Cytation 3. Luminescence values are imported into a template in XLFit (Guildford, Surrey, UK) that uses a four-parameter fit to generate an IC50 value for each compound dilution series on the plate.
So basically: is GI50 under 1000 nM? Then T. Not under? Then F.

See these solved cases before continuing.
Cc1cc(N2C[C@@H](C)n3c(c(CCCOc4cc(C)c(Cl)c(C)c4)c4ccc(Cl)c(-c5c(C)nn(CC6CCOCC6)c5C)c43)C2=O)c2c(c1)cc(C(=O)O)n2C [Example 452] : T
Cc1cc(OCCCc2c3n(c4c(-c5c(C)nn(C)c5C)c(Cl)ccc24)[C@H](C)CN(c2cc(C(C)C)cc4cc(C(=O)O)n(Cc5ccccn5)c24)C3=O)cc(C)c1Cl [Example 359] : T
Cc1cc(OCCCc2c3n(c4c(-c5c(C)nc(CN6CCN(C)CC6)nc5C)c(Cl)ccc24)[C@H](C)CN(c2cn(CCN(C)C)c4ccc(C(=O)O)cc24)C3=O)cc(C)c1Cl [Example 580] : T
CCn1cc2cc(C(=O)O)cc(N3CCCn4c(c(CCCOc5cc(C)c(Cl)c(C)c5)c5ccc(Cl)c(-c6c(C)nn(C)c6C)c54)C3=O)c2n1 [Example 124] : F

Please look at the following molecule next.
Qu. Determine if Cc1cc(OCCCc2c3n(c4c(-c5c(C)nn(C)c5C)c(Cl)ccc24)[C@H](C)CN(c2cc(C(=O)O)c4c(cnn4C)c2)C3=O)cc(C)c1Cl [Example 98] shows GI50 strictly lower than 1000 nM.
Ans. F
